Overview of reported protein stability index across a group of variants:
B1: C10orf62 (parent)
chain: GHSHHSHHGHPSHQSHSLPNRRH

variants of: B1; assay: protein stability index of a GFP-peptide fusion (GPS, HEK-293T) (PSI 1-6); higher = more stable; details: c terminus: native;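 further: lentivirally expressed fusions sorted by FACS into six bins by GFP to DsRed ratio, PSI derived from sequencing read proportions per bin multiplied by bin number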
Note: the reply should be a number with no unit written.

In [3]: df
Out[3]:
   mutant        observed_property  reading
0    H10R  protein stability index     3.48
1    R22M  protein stability index        3
2    H23S  protein stability index     2.88
3    R21G  protein stability index     1.71
4    P11C  protein stability index     4.84

Input line: For the variant shown here, Q14A , give the reported protein stability index.
Output line: 3.39

Input line: For the variant shown here, S3I , give the reported protein stability index.
Output line: 2.2

Input line: For the variant shown here, S15A , give the reported protein stability index.
Output line: 3.68

Input line: For the variant shown here, N20F , give the reported protein stability index.
Output line: 2.31

Input line: For the variant shown here, S15D , give the reported protein stability index.
Output line: 2.07

Input line: For the variant shown here, S17R , give the reported protein stability index.
Output line: 4.84

Input line: For the variant shown here, H2A , give the reported protein stability index.
Output line: 3.05

Input line: For the variant shown here, S17V , give the reported protein stability index.
Output line: 1.69

Input line: For the variant shown here, S12Y , give the reported protein stability index.
Output line: 2.21

Input line: For the variant shown here, H8Q , give the reported protein stability index.
Output line: 2.84

Input line: For the variant shown here, G1N , give the reported protein stability index.
Output line: 2.38

Input line: For the variant shown here, L18I , give the reported protein stability index.
Output line: 3.49

Input line: For the variant shown here, H5M , give the reported protein stability index.
Output line: 2.23

Input line: For the variant shown here, H8K , give the reported protein stability index.
Output line: 3.13

Input line: For the variant shown here, R21E , give the reported protein stability index.
Output line: 2.81

Input line: For the variant shown here, P19E , give the reported protein stability index.
Output line: 2

Input line: For the variant shown here, S17Q , give the reported protein stability index.
Output line: 2.82

Input line: For the variant shown here, H7S , give the reported protein stability index.
Output line: 3.47

Input line: For the variant shown here, G9H , give the reported protein stability index.
Output line: 3.58

Input line: For the variant shown here, G9V , give the reported protein stability index.
Output line: 3.15

Input line: For the variant shown here, H7P , give the reported protein stability index.
Output line: 4.21

Input line: For the variant shown here, H4Q , give the reported protein stability index.
Output line: 2.37
